Data provenance is patent US11377442B2.

Biological target: ERα (Homo sapiens)
Construct: expressed in transfected cells
Sequence (P03372 whole entry, species assumed): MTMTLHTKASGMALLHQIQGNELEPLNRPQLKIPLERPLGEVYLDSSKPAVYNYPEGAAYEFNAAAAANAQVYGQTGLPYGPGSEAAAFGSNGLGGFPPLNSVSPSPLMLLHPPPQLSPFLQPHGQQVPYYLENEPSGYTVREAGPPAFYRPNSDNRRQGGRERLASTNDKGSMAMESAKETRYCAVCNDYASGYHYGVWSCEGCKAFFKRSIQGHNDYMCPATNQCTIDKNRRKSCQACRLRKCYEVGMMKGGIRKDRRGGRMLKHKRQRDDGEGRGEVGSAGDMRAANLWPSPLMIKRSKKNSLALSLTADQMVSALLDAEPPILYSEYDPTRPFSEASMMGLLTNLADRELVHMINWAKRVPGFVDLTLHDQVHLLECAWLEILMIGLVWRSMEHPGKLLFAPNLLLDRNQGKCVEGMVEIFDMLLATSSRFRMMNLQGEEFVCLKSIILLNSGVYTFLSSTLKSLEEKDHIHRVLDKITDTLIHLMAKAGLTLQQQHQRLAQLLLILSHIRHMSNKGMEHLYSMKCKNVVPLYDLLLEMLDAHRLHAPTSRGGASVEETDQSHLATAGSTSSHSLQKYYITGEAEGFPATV
Test: Counterscreening, Firefly signal with ERα transient transfection (Firefly_ERa)
Format: cell-based
Conditions: Table 15; 10 uM
Some molecules, each annotated with its measured Firefly ERalpha transient, cmpd/DMSO (mean).
Readout Kind: Firefly ERalpha transient, cmpd/DMSO (mean)

- Molecule: "CCOC(=O)c1cnc2c(C)cc(C)cc2c1NCCCN1CCCCC1 [Compound Z17]"
  Recorded Value: 9.5
- Molecule: "COc1ccc(-c2noc(Cn3ncc4ccccc4c3=O)n2)cc1"
  Recorded Value: 2.0
- Molecule: "CCOC(=O)c1cnc2c(C)cc(C)cc2c1NCCCOC"
  Recorded Value: 1.0
- Molecule: "CCOC(=O)c1cnc2c(C)cc(C)cc2c1NCCCO"
  Recorded Value: 1.1
- Molecule: "CCOC(=O)c1cnc2c(C)cc(C)cc2c1NCCCN"
  Recorded Value: 6.5
